Record: compiled IC50 on NT-3 growth factor receptor (Homo sapiens, UniProt Q16288) from multiple reports.
Answers are plain numbers, in nM.

[[record]]
smi = "CC(C)(C)n1cc(C(=O)c2cncc(NC(=O)Cn3cc(C(F)(F)F)nn3)c2)c2cncnc21"
study_system = "NT-3 growth factor receptor (Homo sapiens, UniProt Q16288)"
quantitative_result = 1.1

[[record]]
smi = "Fc1cc(F)cc(CCc2ccc3[nH]nc(/C=C/c4ccccn4)c3c2)c1"
study_system = "NT-3 growth factor receptor (Homo sapiens, UniProt Q16288)"
quantitative_result = 4.7

[[record]]
smi = "Fc1ccccc1Cc1ccc2[nH]nc(C#Cc3ccccn3)c2c1"
study_system = "NT-3 growth factor receptor (Homo sapiens, UniProt Q16288)"
quantitative_result = 79


For each of the items listed, what is its IC50?
1. COc1cc2nccc(Oc3ccc(NC(=O)c4nn(C(C)C)cc(-c5ccc(F)cc5)c4=O)nc3)c2cc1OC
2. CC(C)N(Cc1ccn2ncc(C(N)=O)c2c1)C(=O)Nc1ccc(OC(F)(F)F)cc1

1: 6; 2: 3.1

====

Record: compiled pIC50 on UniProt Q16288 from multiple reports.
Give bare numbers, as −log10 of the molar value.

Some molecules with recorded pIC50:
[[record]]
molecule = "CCCOc1ccc(F)cc1C(C)Nc1ccn2ncc(-c3cn[nH]c3)c2n1 (stereo not drawn)"
quantitative_result = 7.91

[[record]]
molecule = "CC(C)(CO)n1cc(C(=O)c2cncc(NC(=O)Cn3cc(C(F)(F)F)nn3)c2)c2cncnc21"
quantitative_result = 7.74


// next item, pIC50 requested
What does the record list as pIC50 for "NC(=O)c1ccc(-c2cc(OC3CCCC3)c3c(N)n[nH]c3c2)cc1N1CCN(c2ccc(F)cc2)CC1" ?
8.27

====

Record: compiled IC50 on NT-3 growth factor receptor (Homo sapiens, UniProt Q16288) from multiple reports.
Class membership depends on IC50 alone; the intervals are low (below 0.008 µM), moderate (0.008 µM to below 0.02 µM), high (0.02 µM or more)

See these solved cases before continuing.
[[record]]
compound = "Fc1cccc(F)c1Cc1ccc2[nH]nc(/C=C/c3ccccn3)c2c1"
classification = "high"

[[record]]
compound = "NC(=O)c1ccc(-c2cc(OC3CCCC3)c3c(N)n[nH]c3c2)cc1N1CCN(C2CCCCC2)CC1"
classification = "moderate"

[[record]]
compound = "O=S(=O)(c1cc(F)cc(F)c1)c1ccc2[nH]nc(/C=C/c3ccccn3)c2c1"
classification = "low"

[[record]]
compound = "CNC(=O)c1ccc(-c2cc(OC(C)C(F)(F)F)c3c(N)n[nH]c3c2)cc1N1CCN(C2CCCCC2)CC1 (stereo not shown)"
classification = "high"

[[record]]
compound = "CC(Nc1ccn2ncc(-c3cnn(C4CCCC4O)c3)c2n1)c1cc(F)ccc1OCC(F)F (stereo not shown)"
classification = "moderate"

[[record]]
compound = "C[C@@H](Nc1ccc2ncc(-c3ccc(OC[C@@H]4CCN4)cc3)n2n1)c1cccc(F)c1"
classification = "low"

[[record]]
compound = "C[C@@H](CO)n1cc(C(=O)c2cncc(NC(=O)Cc3ccc(Cl)cn3)c2)c2cncnc21"
classification = "low"

[[record]]
compound = "Fc1cccc(Cc2ccc3[nH]nc(C#Cc4ccccn4)c3c2)c1"
classification = "moderate"

[[record]]
compound = "CC(Nc1ccn2ncc(-c3cnn(C(F)F)c3)c2n1)c1cc(F)ccc1OCC(F)F (stereo not shown)"
classification = "low"


From here, focus on the item given below.
Please classify: "CNC(=O)c1ccc(-c2cc(OC3CCOCC3)c3c(N)n[nH]c3c2)cc1N1CCN(C2CCCCC2)CC1"
high

====

Record: compiled IC50 on NT-3 growth factor receptor (Homo sapiens, UniProt Q16288) from multiple reports.
Numbers only, in nM.

Some compounds with recorded IC50:
[[record]]
smi = "Fc1cccc(CNc2ccc3[nH]nc(/C=C/c4ccccn4)c3c2)c1"
quantitative_result = 1.3

[[record]]
smi = "C[C@@H](Nc1ccn2ncc(-c3cn[nH]c3)c2n1)c1cc(F)ccc1OCC(F)F"
quantitative_result = 3.1

[[record]]
smi = "C[C@@H]1COc2ccc(F)cc2[C@@H](C)Nc2ccn3ncc(c3n2)C(=O)O1"
quantitative_result = 1.2


// next item, IC50 requested
API: value(readout=IC50, system=NT-3 growth factor receptor (Homo sapiens, UniProt Q16288)) for record "Cc1cccc(/C=C/c2n[nH]c3ccc(Cc4cc(F)cc(F)c4)cc23)n1"
4.2

====

Record: compiled pIC50 on NT-3 growth factor receptor (Homo sapiens) from multiple reports.
Numbers only, as −log10 of the molar value.

For each of the items listed, what is its pIC50?
1. CC[C@@H](C)N(Cc1ccn2ncc(C(N)=O)c2c1)C(=O)Nc1ccc(OC(F)(F)F)cc1
2. CNC(=O)c1ccc(-c2cc(O[C@H](C)C(F)(F)F)c3c(N)n[nH]c3c2)cc1N1CCN(C2CCCCC2)CC1
3. C[C@@H](CO)n1cc(C(=O)c2cncc(NC(=O)Cc3ccc(C(F)(F)F)cc3)c2)c2cncnc21
4. Fc1cc(Cc2ccc3[nH]nc(/C=C/c4ccccn4)c3c2)cc(F)c1F
5. Fc1cc(F)cc(Cc2ccc3[nH]nc(/C=C/c4cccnc4)c3c2)c1
6. Fc1cc(F)cc(NCc2ccc3[nH]nc(/C=C/c4ccccn4)c3c2)c1

1. 8.18
2. 7.43
3. 8.23
4. 6.72
5. 8.07
6. 7.78

For each of the items listed, what is its pIC50?
1. Fc1cc(F)cc(Oc2ccc3[nH]nc(C#Cc4ccccn4)c3c2)c1
2. Fc1ccc(Cc2ccc3[nH]nc(/C=C/c4ccccn4)c3c2)c(F)c1
3. C[C@@H](Nc1ccn2ncc(-c3cnn(CC#N)c3)c2n1)c1cc(F)ccc1OCC(F)F
4. CC(Nc1ccn2ncc(-c3cn[nH]c3)c2n1)c1cc(F)ccc1OC1CCCC1 (centres unmarked)
5. CN(Cc1cc(F)cc(F)c1)c1ccc2[nH]nc(/C=C/c3ccccn3)c2c1

1: 6.70; 2: 6.21; 3: 8.62; 4: 8.10; 5: 8.21

====

Record: compiled IC50 on NT-3 growth factor receptor (Homo sapiens, UniProt Q16288) from multiple reports.
Answers are plain numbers, in nM.

[[record]]
compound = "C[C@@H](CO)n1cc(C(=O)c2cncc(NC(=O)Cc3ccc(Cl)cc3)c2)c2cncnc21"
uom = "nM"
quantitative_result = 6.6

[[record]]
compound = "CC(C)CN1CCc2ncc(F)cc2[C@H]2CCCN2c2ccn3ncc(c3n2)C(=O)N1"
uom = "nM"
quantitative_result = 0.32

[[record]]
compound = "CC(Nc1ccn2ncc(-c3cn[nH]c3)c2n1)c1cc(F)ccc1OC(F)F (centres unmarked)"
uom = "nM"
quantitative_result = 3.8

[[record]]
compound = "CCOc1ccc(F)cc1C(C)Nc1ccn2ncc(-c3cn[nH]c3)c2n1 (centres unmarked)"
uom = "nM"
quantitative_result = 8.4


// next item, IC50 requested
What does the record list as IC50 for "O=S(=O)(c1cc(F)cc(F)c1)c1ccc2[nH]nc(C#Cc3ccccn3)c2c1" ?
21.4

====

Record: compiled IC50 on NT-3 growth factor receptor (Homo sapiens, UniProt Q16288) from multiple reports.
IC50 vs 10 nM: less than gives Yes; not less than gives No.

For "CNC(=O)c1ccc(-c2cc(OC(C)C)c3c(N)n[nH]c3c2)cc1N1CCN(C2CCCCC2)CC1" , is the recorded IC50 below the cut-off of 10 nM?
Yes

For "C[C@@H](Nc1ccn2ncc(-c3cn[nH]c3)c2n1)c1cc(F)ccc1OCCF" , is the recorded IC50 below the cut-off of 10 nM?
Yes

For "Fc1cccc(F)c1Cc1ccc2[nH]nc(C#Cc3ccccn3)c2c1" , is the recorded IC50 below the cut-off of 10 nM?
No

For "Cc1c(C#Cc2cnc3ccc(N4CCN(C5COC5)CC4)nn23)cccc1C(=O)Nc1cc(Cl)cc(C(F)(F)F)c1" , is the recorded IC50 below the cut-off of 10 nM?
Yes

For "O=S(=O)(Nc1ccc2[nH]nc(/C=C/c3ccccn3)c2c1)c1cc(F)cc(F)c1" , is the recorded IC50 below the cut-off of 10 nM?
Yes

For "Cc1cn(-c2cc(NC(=O)c3cccc(C#Cc4cnc5ccc(N6CCOCC6)nn45)c3C)cc(C(F)(F)F)c2)cn1" , is the recorded IC50 below the cut-off of 10 nM?
Yes

For "CC(C)CN(Cc1ccn2ncc(C(=O)O)c2c1)C(=O)Nc1ccc(OC(F)(F)F)cc1" , is the recorded IC50 below the cut-off of 10 nM?
No

====

Record: compiled IC50 on NT-3 growth factor receptor (Homo sapiens) from multiple reports.
Give bare numbers, in nM.

[[record]]
molecule = "Fc1cccc(Cc2ccc3[nH]nc(/C=C/c4ccccn4)c3c2)c1F"
uom = "nM"
quantitative_result = 8.5

[[record]]
molecule = "CN(Cc1ccn2ncc(C(N)=O)c2c1)C(=S)Nc1ccc(OC(F)(F)F)cc1"
uom = "nM"
quantitative_result = 21.5

[[record]]
molecule = "Fc1cc(F)cc(Cc2ccc3[nH]nc(C#Cc4ccccn4)c3c2)c1"
uom = "nM"
quantitative_result = 11.8

[[record]]
molecule = "C(#Cc1n[nH]c2ccc(Cc3ccccc3)cc12)c1ccccn1"
uom = "nM"
quantitative_result = 95

[[record]]
molecule = "CC(=O)c1ccc(OCC(=O)N(Cc2ccn3ncc(C(N)=O)c3c2)C(C)C)cc1"
uom = "nM"
quantitative_result = 312

[[record]]
molecule = "CNC(=O)c1ccc(-c2cc(OC(C)C(F)(F)F)c3c(N)n[nH]c3c2)cc1N1CCN(C2CC2)CC1 (centres unmarked)"
uom = "nM"
quantitative_result = 318


API: value(readout=IC50, system=NT-3 growth factor receptor (Homo sapiens)) for record "CC(C)(C)n1cc(C(=O)c2cncc(NC(=O)Cn3cc(C4CC4)nn3)c2)c2cncnc21"
4.4
